Target: T1, GST–PPARα fusion protein (purified ligand binding domain of PPARα)
T1 sequence (Q07869 whole entry, species assumed, looked up): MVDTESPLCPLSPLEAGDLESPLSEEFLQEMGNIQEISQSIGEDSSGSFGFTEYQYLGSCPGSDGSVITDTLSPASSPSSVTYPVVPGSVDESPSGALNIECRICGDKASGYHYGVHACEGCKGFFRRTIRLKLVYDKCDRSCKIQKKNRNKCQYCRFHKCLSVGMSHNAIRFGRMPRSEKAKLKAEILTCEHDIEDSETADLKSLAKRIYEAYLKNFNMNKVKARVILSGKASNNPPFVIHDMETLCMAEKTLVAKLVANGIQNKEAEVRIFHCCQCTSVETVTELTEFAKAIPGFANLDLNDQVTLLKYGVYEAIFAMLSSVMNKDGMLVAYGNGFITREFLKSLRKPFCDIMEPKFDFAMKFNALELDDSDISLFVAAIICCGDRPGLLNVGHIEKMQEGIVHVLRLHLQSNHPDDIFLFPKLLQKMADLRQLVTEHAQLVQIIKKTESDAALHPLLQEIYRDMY
Assay: FRET or BRET; homogeneous TR-FRET as a1, 12-concentration dose–response of aleglitazar; the EC50 is of the compound; delta ratio in % of the reference compound at 10 μM (RO4899100 for PPARα, edaglitazone for PPARγ)
Where no end group is shown, it is not given here. The star is where a group is joined. Biotin = O=C1N[C@H]2[C@H](CS[C@H]2CCCCC(=O)*)N1; Ahx = NCCCCCC(=O)O
Overview of recorded EC50 of aleglitazar for recruitment for various binders
Write the number in nM without appending the unit.

Examples with their reported EC50 of aleglitazar for recruitment follow.
binder	EC50 of aleglitazar for recruitment [nM]
{Biotin-Ahx}-PKKENNALLRYLLDRDDPSDV (source: synthetic peptide (Jerini or Biosynthan, Berlin)) [RAC3_M3 cofactor peptide (receptor-associated co-activator 3, motif 3)]	4.4
{Biotin-Ahx}-LDASKKKESKDHQLLRYLLDKDEKD (source: synthetic peptide (Jerini or Biosynthan, Berlin)) [SRC1_M3 cofactor peptide (steroid receptor co-activator 1, motif 3)]	2.4

Query: Quick one: EC50 of aleglitazar for recruitment for {Biotin-Ahx}-DSKYSQTSHKLVQLLTTTAEQQLRH (source: synthetic peptide (Jerini or Biosynthan, Berlin)) [SRC1_M1 cofactor peptide (steroid receptor co-activator 1, motif 1)] ?
Response: 2.9

Query: Quick one: EC50 of aleglitazar for recruitment for {Biotin-Ahx}-SPKKKENALLRYLLDKDDTK [TIF2_M3 cofactor peptide (transcriptional intermediary factor 2, motif 3)] ?
Response: 2.3

Query: Quick one: EC50 of aleglitazar for recruitment for {Biotin-Ahx}-STHGTSLKEKHKILHRLLQDS [TIF2_M2 cofactor peptide (transcriptional intermediary factor 2, motif 2)] ?
Response: 1.6

Query: Quick one: EC50 of aleglitazar for recruitment for {Biotin-Ahx}-SRLHDSKGQTKLLQLLTTKSD (transcriptional intermediary factor 2 (TIF2), motif 1, residues 630-650; source: synthetic peptide (Jerini or Biosynthan, Berlin)) [TIF2_M1 cofactor peptide (transcriptional intermediary factor 2, motif 1)] ?
Response: 2.1
